# target under test: CD137 on Jurkat reporter cells (Promega kit CS196005) (UniProt Q07011)
# Sequence (Q07011 24-255 limits assumed): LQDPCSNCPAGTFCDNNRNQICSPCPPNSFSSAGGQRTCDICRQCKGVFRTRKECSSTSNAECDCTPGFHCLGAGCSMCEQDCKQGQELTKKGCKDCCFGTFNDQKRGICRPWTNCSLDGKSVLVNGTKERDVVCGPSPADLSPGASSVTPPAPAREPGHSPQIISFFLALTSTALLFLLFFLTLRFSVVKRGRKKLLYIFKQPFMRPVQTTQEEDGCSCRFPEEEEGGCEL
# assay text: cell-based or functional assay
Starred links: 1 amine or outer side, 2 acyl side, 3 side chain; linkers in the order of their positions; H or OH if unused. Positions of bridges follow the written chain, without caps; N, C: chain ends. Non-standard residues stand in square brackets, D forms with d. Chains are numbered I, II in the order given. No end group written: not given here. *: point of attachment. TATA = O=C(CC[*:1])N1CN(C(=O)CC[*:2])CN(C(=O)CC[*:3])C1; Dip = N[C@H](C(=O)O)C(c1ccccc1)c1ccccc1; Hyp = O=C(O)[C@@H]1C[C@@H](O)CN1; hArg = N=C(N)NCCCC[C@H](N)C(=O)O; tBuAla = CC(C)(C)C[C@H](N)C(=O)O; dK(PYA) = not defined here; Nle = CCCC[C@H](N)C(=O)O; Pent4ynoyl = C#CCCC(=O)*

binder	endpoint unit	EC50 (nM), PC3 co-culture
BCY12976 (linker I:4-I:11-I:18, II:1-II:8-II:15 via TATA; linker I:12-II:5 via N‑(acid-PEG3)‑N‑bis(PEG3-azide); reading uncertain; also: two CD137 bicycles per complex (EphA2:CD137 1:2)) peptide 1: Ac-A[hArg]DC[Hyp]LVNPLCKHP[dD]W[hArg]C peptide 2: Ac-C[tBuAla]PE[dK(PYA)]PYCFADPY[Nle]CA	nM	0.18
BCY13054 (linker I:4-I:11-I:18, II:1-II:8-II:15 via TATA; not fully specified (N-terminus, bridges); also: linker joins chain 1 to two chain 2 copies via PYA triazoles) peptide 1: A[hArg]DC[Hyp]LVNPLCL[Dip]P[dD]W[hArg]C peptide 2: Ac-C[tBuAla]PE[dK](Pent4ynoyl)PYCFADPY[Nle]CA	nM	0.07
BCY12977 (linker I:4-I:11-I:18, II:1-II:8-II:15 via TATA; linker II:N-II:5 via N‑(acid-PEG3)‑N‑bis(PEG3-azide); reading uncertain; also: two CD137 bicycles per complex (EphA2:CD137 1:2)) peptide 1: A[hArg]DC[Hyp]LVNPLCLHP[dE]W[hArg]C peptide 2: Ac-C[tBuAla]PE[dK(PYA)]PYCFADPY[Nle]CA	nM	0.08
